Every entry's value here was drawn from BigSolDB 2.1.

Details: in propylene glycol, 303.15 K
RECORDED METRIC: solubility (mole fraction)

SMILES REPRESENTATION | RECORDED METRIC | VALUE REPORTED
CC(=O)Nc1ccc(O)cc1 | solubility (mole fraction) | 0.0603

---

Conditions: in ethanol, 313.15 K

SMILES REPRESENTATION | solubility (mole fraction)
CC(=O)Nc1ccc(O)cc1 | 0.0705

---

Conditions: in propylene glycol, 293.15 K

SMILES REPRESENTATION | solubility (mole fraction)
CC(=O)Nc1ccc(O)cc1 | 0.0483

---

Conditions: in propylene glycol, 298.15 K
RECORDED METRIC: solubility (mole fraction)

SMILES REPRESENTATION | VALUE REPORTED
CC(=O)Nc1ccc(O)cc1 | 0.0516

---

Conditions: in propylene glycol, 313.15 K

SMILES REPRESENTATION | solubility (mole fraction)
CC(=O)Nc1ccc(O)cc1 | 0.0752

---

Settings: in ethanol, 308.15 K

SMILES REPRESENTATION | solubility (mole fraction)
CC(=O)Nc1ccc(O)cc1 | 0.067

---

Conditions: in ethanol, 293.15 K

SMILES REPRESENTATION | solubility (mole fraction)
CC(=O)Nc1ccc(O)cc1 | 0.0505

---

Details: in ethanol, 298.15 K

SMILES REPRESENTATION | solubility (mole fraction)
CC(=O)Nc1ccc(O)cc1 | 0.0546
